Measured half-life at 2 μM, listed per entry for reference.
PROCEDURE DETAILS: Metabolic stability in dog hepatocytes
Type: in vitro ADME
CONDITIONS: pooled cryopreserved hepatocytes; beagle dog hepatocytes, 2 μM compound; read-out: Dog Hepatocyte Stability (t1/2)
MEASURED ENDPOINT: half-life at 2 μM

| SAMPLE SMILES | RECORDED RESULT |
| --- | --- |
| CC[C@@H](NC(=O)N1C(=O)[C@H](Cc2ccnc(N)c2)[C@H]1C(=O)N(C)c1ccn(C)n1)C1CCCCC1 | 1.02 to 2 h |
| CC[C@@H](NC(=O)N1C(=O)[C@H](Cc2cc(C)nc(NC)c2)[C@H]1C(=O)N(C)c1ccnn1C)C1CCCCC1 | < 1 h |
| CC[C@@H](NC(=O)N1C(=O)[C@H](Cc2cc(C)nc(N)c2)[C@H]1C(=O)N(C)c1ccnn1C)c1ccc(C)c(F)c1 | 2.02 to 4 h |
| CC[C@@H](NC(=O)N1C(=O)[C@H](Cc2ccnc(N)c2)[C@H]1C(=O)N(C)c1nccn1C)c1cccc(C)c1 | 2.02 to 4 h |
| CN(C(=O)[C@@H]1[C@@H](Cc2ccnc(N)c2)C(=O)N1C(=O)N[C@@H](C1CCCCC1)C1CC1)c1ccn(C)n1 | < 1 h |
| CC[C@@H](NC(=O)N1C(=O)[C@H](Cc2cc(C)nc(NC)c2)[C@H]1C(=O)N(C)c1nccn1C)c1ccccc1 | 2.02 to 4 h |

----------
SYSTEM TESTED: Factor XIa (Homo sapiens (Human))
Sequence (P03951 388-625): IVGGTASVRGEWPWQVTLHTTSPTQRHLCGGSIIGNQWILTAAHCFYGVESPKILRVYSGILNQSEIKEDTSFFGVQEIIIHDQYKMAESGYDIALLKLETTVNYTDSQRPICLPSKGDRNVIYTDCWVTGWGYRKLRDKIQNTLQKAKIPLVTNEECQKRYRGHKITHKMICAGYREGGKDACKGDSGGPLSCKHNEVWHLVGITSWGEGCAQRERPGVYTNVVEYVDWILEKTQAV
Sequence (P03951 19-387 partner): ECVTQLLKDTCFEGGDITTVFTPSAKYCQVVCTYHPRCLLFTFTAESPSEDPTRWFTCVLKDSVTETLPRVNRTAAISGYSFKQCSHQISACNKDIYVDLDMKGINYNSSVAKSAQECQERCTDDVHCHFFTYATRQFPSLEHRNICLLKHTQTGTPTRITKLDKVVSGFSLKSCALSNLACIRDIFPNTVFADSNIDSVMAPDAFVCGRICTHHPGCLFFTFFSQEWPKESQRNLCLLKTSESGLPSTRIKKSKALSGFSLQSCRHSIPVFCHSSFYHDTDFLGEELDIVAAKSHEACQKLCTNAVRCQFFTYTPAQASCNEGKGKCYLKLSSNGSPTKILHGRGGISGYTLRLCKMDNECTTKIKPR
Measured IC50, listed per entry for reference.

| COMPOUND | IC50 |
| --- | --- |
| CC[C@@H](NC(=O)N1C(=O)[C@H](Cc2ccnc(N)c2)[C@H]1C(=O)N(C)c1nncs1)c1ccccc1 [Compound 1-168] | < 10 nM |
| CC[C@@H](NC(=O)N1C(=O)[C@H](Cc2cc(C)nc(N)c2)[C@H]1C(=O)N(C)c1cnn(C)c1)c1ccc(F)cc1F [Compound 1-188] | 10 to 100 nM |
| CC[C@@H](NC(=O)N1C(=O)[C@H](Cc2cc(C)nc(N)c2)[C@H]1C(=O)N(C)c1nccn1C)c1ccc(C)c(Cl)c1 [Compound 1-113] | < 10 nM |
| CC[C@@H](NC(=O)N1C(=O)[C@H](Cc2cc(C)nc(N)c2)[C@H]1C(=O)N(C)c1ccn(C)n1)c1cccc(F)c1F [Compound 1-146] | < 10 nM |
| CC[C@@H](NC(=O)N1C(=O)[C@H](Cc2cc(C)nc(N)c2)[C@H]1C(=O)N(C)c1cnn(C)c1)c1ccc(C)cc1F [Compound 1-183] | < 10 nM |
| CC[C@@H](NC(=O)N1C(=O)[C@H](Cc2ccnc(N)c2)[C@H]1C(=O)N(C)c1cncs1)c1ccccc1 [Compound 1-12] | < 10 nM |

----------
SYSTEM TESTED: Factor Xa (Homo sapiens (Human), UniProt P00742)
Sequence (P00742 235-488): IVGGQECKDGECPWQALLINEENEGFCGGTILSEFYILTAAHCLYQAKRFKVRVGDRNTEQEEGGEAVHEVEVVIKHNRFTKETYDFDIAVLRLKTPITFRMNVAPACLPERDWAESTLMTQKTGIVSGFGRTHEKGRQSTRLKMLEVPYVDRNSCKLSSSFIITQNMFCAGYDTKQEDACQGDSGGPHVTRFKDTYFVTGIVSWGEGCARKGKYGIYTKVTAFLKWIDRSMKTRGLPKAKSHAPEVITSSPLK
Sequence (P00742 41-179 partner): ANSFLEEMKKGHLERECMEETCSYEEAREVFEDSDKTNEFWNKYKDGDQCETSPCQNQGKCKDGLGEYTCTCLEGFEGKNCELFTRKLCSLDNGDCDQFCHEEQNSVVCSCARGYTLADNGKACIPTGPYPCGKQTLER
PROCEDURE DETAILS: Dose response assay for protease inhibitors: Factor Xa
Assay type: biochemical
CONDITIONS: selectivity, Factor Xa over Factor XIa
MEASURED ENDPOINT: Ratio: FXa/FXIa

| SAMPLE SMILES | MEASURED ENDPOINT | RECORDED RESULT |
| --- | --- | --- |
| CC[C@@H](NC(=O)N1C(=O)[C@H](Cc2ccnc(N)c2)[C@H]1C(=O)N(C)c1cnn(C)c1)c1cc(F)c(F)c(F)c1 | Ratio: FXa/FXIa | I (“I” indicates > 500) |
| CC[C@@H](NC(=O)N1C(=O)[C@H](Cc2cc(C)nc(N)c2)[C@H]1C(=O)N(C)c1nccn1C)c1ccc(C)cc1 | Ratio: FXa/FXIa | I (“I” indicates > 500) |

----------
PROCEDURE DETAILS: Caco-2 cell permeability assay
Type: in vitro ADME, human
CONDITIONS: human, Caco-2, basolateral to apical, 40 min, 37° C.
MEASURED ENDPOINT: Papp B→A at 40 min, 10 μM

| SAMPLE SMILES | RECORDED RESULT |
| --- | --- |
| CC[C@@H](NC(=O)N1C(=O)[C@H](Cc2ccnc(N)c2)[C@H]1C(=O)N(C)c1ccn(C)n1)c1cccc(Cl)c1 | 11 to 30 ×10⁻⁶ cm/s |
| CC[C@@H](NC(=O)N1C(=O)[C@H](Cc2ccnc(N)c2)[C@H]1C(=O)N(C)c1nccn1C)c1cccc(C)c1 | 31 to 50 ×10⁻⁶ cm/s |
| CC[C@@H](NC(=O)N1C(=O)[C@H](Cc2ccnc(N)c2)[C@H]1C(=O)N(C)c1ccnn1C)C1CCCCC1 | 31 to 50 ×10⁻⁶ cm/s |
| CC[C@@H](NC(=O)N1C(=O)[C@H](Cc2cc(C)nc(N)c2)[C@H]1C(=O)N(C)c1nccn1C)c1ccccc1 | 31 to 50 ×10⁻⁶ cm/s |
| CC[C@@H](NC(=O)N1C(=O)[C@H](Cc2ccnc(N)c2)[C@H]1C(=O)N(C)c1ccsc1)c1ccccc1 | 11 to 30 ×10⁻⁶ cm/s |
| CC(C)[C@@H](NC(=O)N1C(=O)[C@H](Cc2ccnc(N)c2)[C@H]1C(=O)N(C)c1ccn(C)n1)C1CCCCC1 | 11 to 30 ×10⁻⁶ cm/s |
| CC[C@@H](NC(=O)N1C(=O)[C@H](Cc2ccnc(N)c2)[C@H]1C(=O)N(C)c1cnn(C)c1)c1cccc(Cl)c1 | 11 to 30 ×10⁻⁶ cm/s |
| CC[C@@H](NC(=O)N1C(=O)[C@H](Cc2cc(C)nc(N)c2)[C@H]1C(=O)N(C)c1ccnn1C)C1CCCCC1 | 31 to 50 ×10⁻⁶ cm/s |
| CC[C@@H](NC(=O)N1C(=O)[C@H](Cc2ccnc(N)c2)[C@H]1C(=O)N(C)c1cccs1)c1ccccc1 | 11 to 30 ×10⁻⁶ cm/s |
| CC[C@@H](NC(=O)N1C(=O)[C@H](Cc2cc(C)nc(N)c2)[C@H]1C(=O)N(C)c1ccnn1C)c1ccc(C)c(C)c1 | 11 to 30 ×10⁻⁶ cm/s |
| CC[C@@H](NC(=O)N1C(=O)[C@H](Cc2cc(C)nc(NC)c2)[C@H]1C(=O)N(C)c1nccn1C)c1ccccc1 | 31 to 50 ×10⁻⁶ cm/s |
| CC[C@@H](NC(=O)N1C(=O)[C@H](Cc2ccnc(N)c2)[C@H]1C(=O)N(C)c1nccn1C)c1cc(F)ccc1F | 11 to 30 ×10⁻⁶ cm/s |
| CC[C@@H](NC(=O)N1C(=O)[C@H](Cc2ccnc(N)c2)[C@H]1C(=O)N(C)c1cnn(C)c1)c1ccc(C)nc1 | < 10 ×10⁻⁶ cm/s |
| C[C@@H](NC(=O)N1C(=O)[C@H](Cc2ccnc(N)c2)[C@H]1C(=O)N(C)c1ccn(C)n1)C1CCCCC1 | 31 to 50 ×10⁻⁶ cm/s |
| CC[C@@H](NC(=O)N1C(=O)[C@H](Cc2ccnc(N)c2)[C@H]1C(=O)N(C)c1ccnn1C)c1cccc(Cl)c1 | 11 to 30 ×10⁻⁶ cm/s |
| CC[C@@H](NC(=O)N1C(=O)[C@H](Cc2cc(C)nc(N)c2)[C@H]1C(=O)N(C)c1nccn1C)c1cccc(Cl)c1 | 11 to 30 ×10⁻⁶ cm/s |
| CC[C@@H](NC(=O)N1C(=O)[C@H](Cc2ccnc(N)c2)[C@H]1C(=O)N(C)c1nccn1C)c1ccccc1 | 11 to 30 ×10⁻⁶ cm/s |
| CC[C@@H](NC(=O)N1C(=O)[C@H](Cc2cc(C)nc(NC)c2)[C@H]1C(=O)N(C)c1nccn1C)c1cccc(Cl)c1 | 11 to 30 ×10⁻⁶ cm/s |
| CC[C@@H](NC(=O)N1C(=O)[C@H](Cc2cc(C)nc(N)c2)[C@H]1C(=O)N(C)c1ccn(C)n1)c1cccc(C)c1 | 11 to 30 ×10⁻⁶ cm/s |
| CC[C@@H](NC(=O)N1C(=O)[C@H](Cc2ccnc(N)c2)[C@H]1C(=O)N(C)c1nccn1C)C1CCCCC1 | 31 to 50 ×10⁻⁶ cm/s |
| CC[C@@H](NC(=O)N1C(=O)[C@H](Cc2ccnc(N)c2)[C@H]1C(=O)N(C)c1ccn(C)n1)c1ccccc1 | 31 to 50 ×10⁻⁶ cm/s |
| CC[C@@H](NC(=O)N1C(=O)[C@H](Cc2cc(C)nc(NC)c2)[C@H]1C(=O)N(C)c1ccnn1C)C1CCCCC1 | 11 to 30 ×10⁻⁶ cm/s |
| CC[C@@H](NC(=O)N1C(=O)[C@H](Cc2ccnc(N)c2)[C@H]1C(=O)N(C)c1nccn1C)c1ccc(C)nc1 | < 10 ×10⁻⁶ cm/s |
| CN(C(=O)[C@@H]1[C@@H](Cc2ccnc(N)c2)C(=O)N1C(=O)N[C@@H](C1CCCCC1)C1CC1)c1ccn(C)n1 | 11 to 30 ×10⁻⁶ cm/s |
| CC[C@@H](NC(=O)N1C(=O)[C@H](Cc2ccnc(N)c2)[C@H]1C(=O)N(C)c1nccn1C)c1ccccc1Cl | > 50 ×10⁻⁶ cm/s |
| CC[C@@H](NC(=O)N1C(=O)[C@H](Cc2ccnc(N)c2)[C@H]1C(=O)N(C)c1cnn(C)c1)c1ccccc1 | 11 to 30 ×10⁻⁶ cm/s |
